Attribution: ChEMBL document CHEMBL2407085

- Experimental target: Amyloid-beta precursor protein (Homo sapiens, UniProt P05067)
- Sequence (P05067 whole entry): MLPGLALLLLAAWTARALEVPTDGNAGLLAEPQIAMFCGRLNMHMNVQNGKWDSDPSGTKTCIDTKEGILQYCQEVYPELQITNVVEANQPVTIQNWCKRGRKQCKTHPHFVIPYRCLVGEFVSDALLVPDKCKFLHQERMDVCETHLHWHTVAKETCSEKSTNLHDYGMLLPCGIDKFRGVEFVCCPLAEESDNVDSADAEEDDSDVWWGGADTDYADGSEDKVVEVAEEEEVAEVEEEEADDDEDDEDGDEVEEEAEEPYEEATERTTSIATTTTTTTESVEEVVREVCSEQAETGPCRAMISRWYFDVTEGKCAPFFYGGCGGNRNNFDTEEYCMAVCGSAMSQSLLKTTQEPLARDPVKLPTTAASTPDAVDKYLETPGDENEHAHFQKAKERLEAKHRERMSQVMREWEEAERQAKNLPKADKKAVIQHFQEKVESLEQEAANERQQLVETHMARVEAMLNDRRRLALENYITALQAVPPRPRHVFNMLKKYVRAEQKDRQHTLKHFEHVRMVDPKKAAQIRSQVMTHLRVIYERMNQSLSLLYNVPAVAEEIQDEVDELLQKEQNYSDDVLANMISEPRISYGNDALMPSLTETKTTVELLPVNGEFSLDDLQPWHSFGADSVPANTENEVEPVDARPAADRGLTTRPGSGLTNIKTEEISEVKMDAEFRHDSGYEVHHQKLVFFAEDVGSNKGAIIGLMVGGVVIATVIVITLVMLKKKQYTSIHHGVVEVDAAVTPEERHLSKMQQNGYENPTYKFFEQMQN
- Test protocol: Displacement of [125I]IMPY from amyloid beta (1 to 42) (unknown origin) after 3 hrs by gamma counting
Attribute measured: Ki (nM)
Give the number; nM is assumed, so skip it.

CNc1ccc(/C=C/c2ccc(OCCOCCOCCF)nc2)cc1    12.8

API: the following record is the query input.
So what does the record say about Ki for `CN(C)c1ccc(-c2cnc3cc(OCCF)ccc3n2)cc1` ?
0.895

* * *

- Tested on: Brain
- Test protocol: Ratio of drug uptake in ddY mouse brain at 23.4 to 48.2 kBq, iv measured at 2 mins to drug uptake in ddY mouse brain at 23.4 to 48.2 kBq, iv measured at 60 mins
- Test settings: in vivo
In this section we review reported Ratio values for a set of molecules.
Please respond with just the number, no unit label.

Please review the following examples before continuing.
CNc1ccc(-c2cnc3ccc(OCC[18F])cc3n2)cc1    2.36
CNc1ccc(/C=C/c2ccc(OCCOCCOCC[18F])nc2)cc1    3.8
Nc1ccc(-c2cnc3ccc(OCC[18F])cc3n2)cc1    2.36
CN(C)c1ccc(-c2cnc3ccc(OCC[18F])cc3n2)cc1    3.91
Nc1ccc(-c2cnc3cc(OCC[18F])ccc3n2)cc1    2.36

So what does the record say about Ratio for `CN(C)c1ccc(-c2cnc3cc(OCC[18F])ccc3n2)cc1` ?
2.36

So what does the record say about Ratio for `CNc1ccc(-c2cnc3cc(OCC[18F])ccc3n2)cc1` ?
2.36
